Taken from ChEMBL document CHEMBL1201862.

Test system: CAKI-1
Assay: NCI tumour cell line growth inhibition, 48 h
Activity calls are given as the source filed them. Rule as the data show it: active = GI50 up to about 1.1 µM and inactive = higher.
compounds and their reported GI50
property_name: GI50

compound	target	measured_value
CCCCc1ccc(-n2c3nc(=O)n(C)c(=O)c-3nc3ccccc32)cc1	CAKI-1	18.4 µM (inactive)
Fc1ccccc1C1SCc2nc3cc4ccccc4cc3n21 (configuration not stated)	CAKI-1	37 µM (inactive)
CCOP(=O)(CCCC(O)CNc1nc(N)nc(Cl)c1/N=N/c1ccc(Cl)cc1)OCC (configuration not stated)	CAKI-1	3.02 µM (inactive)
O=C1NC(=O)/C(=C/c2ccc(S(=O)(=O)N/N=C/c3ccccc3)cc2)N1	CAKI-1	> 100 µM (inactive)
Cc1ccccc1N(C)S(=O)(=O)c1ccccc1[N+](=O)[O-]	CAKI-1	59.3 µM (inactive)
CC1CC[C@@]2(OC1)OC1C[C@H]3[C@@H]4CC[C@H]5CC(OC6OC(CO)C(OC7OC(CO)C(O)C(O)C7OC7OC(CO)C(O)C(O)C7O)C(O)C6O)CCC5(C)[C@H]4CCC3(C)C1[C@@H]2C (some centres not stated)	CAKI-1	3.21 µM (inactive)
Cc1ccc(C)c(NC(=O)CC/C(=N\NC(=O)C(N)=O)C(C)C(=O)c2ccc(O)cc2)c1 (configuration not stated)	CAKI-1	> 100 µM (inactive)
O=[N+]([O-])c1ccc(Nc2nc3ccccc3s2)cc1	CAKI-1	> 100 µM (inactive)
Cc1ccc(S(=O)(=O)NC(=O)Nc2nc(Cl)cc(Cl)n2)cc1	CAKI-1	> 100 µM (inactive)
COc1ccccc1NCC(=O)Nn1c(C)nc2ccc(S(=O)(=O)Nc3ccccc3OC)cc2c1=O	CAKI-1	> 100 µM (inactive)
COc1cc(/C=C2\CCC(C)C3=C2N=c2s/c(=C/c4ccc(Cl)cc4)c(=O)n2C3c2cc(OC)c(OC)c(OC)c2)cc(OC)c1OC (configuration not stated)	CAKI-1	> 100 µM (inactive)
[N-]=[N+]=NCc1nc(N)c2c3c(sc2n1)CCCC3	CAKI-1	1.56 µM (inactive)
COc1ccn(CC(=O)c2cc3ccccc3[nH]2)c(=O)n1	CAKI-1	> 100 µM (inactive)
O=c1c2cc(I)ccc2nc(-c2cccs2)n1Nc1ccccc1	CAKI-1	11 µM (inactive)
COC(=O)c1cc2c(cc1CC(Cc1ccc3c(c1)CCCC3)C(=O)OC)CCCC2 (configuration not stated)	CAKI-1	> 100 µM (inactive)
CC12CC(c3ccccc3O1)C(C(=O)Nc1nccs1)C(=O)N2 (configuration not stated)	CAKI-1	> 100 µM (inactive)
CC1(C)OC(CCO)CN1C(=O)OCc1ccccc1 (configuration not stated)	CAKI-1	> 100 µM (inactive)
CCCC(N)C(=O)c1ccccc1 (configuration not stated)	CAKI-1	> 100 µM (inactive)
CC1CCCCc2nc3c(c(=O)n21)CCCC3 (configuration not stated)	CAKI-1	> 100 µM (inactive)
COC1=CC(=O)c2ccccc2C1(CCC=C(C)C)C1=NC(C)(C)CO1 (configuration not stated)	CAKI-1	> 100 µM (inactive)
S=C(NCc1ccccn1)N/N=C/c1ccccn1	CAKI-1	< 0.01 µM (active)
C=CC[C@H]1C[C@@]2(C)OC[C@H](C(C)C)N2C1=O	CAKI-1	> 100 µM (inactive)
